B1: library; a variant is named by its letters at N, in order (parent)
chain: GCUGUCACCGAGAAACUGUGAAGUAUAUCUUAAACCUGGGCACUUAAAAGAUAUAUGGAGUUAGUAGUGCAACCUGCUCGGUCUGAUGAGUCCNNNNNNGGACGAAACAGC

Variants of: B1
Experiment: FACS-Seq fitted mean relative fluorescence mCherry/BFP without ligand (log10 relative fluorescence); HEK293T; ligand: cyclic di-GMP (c-di-GMP-II aptamer); higher = higher reporter protein expression
Details: ligand present: no
Listing of recorded FACS-Seq fitted mean (log10) by entry.
Give the figure only, with no unit attached.

UGUUGA = -0.163
ACGUGU = -0.475

Now examine the next entry.
Problem: Any idea what FACS-Seq fitted mean (log10) was measured for UCCAGC ?
Result: -0.739

// data source = the supplement of paper PMC6757056
